Measured values drawn from patent US6083964A for this set.

# Tested on: maximal electroshock seizure (MES) in rats
# assay procedure: Maximal electroshock seizure (MES) test, rats, p.o.
# Assay type: in vivo, rat (Sprague-Dawley)
# protocol conditions: rat, p.o. for racemic AAPs, MES
endpoint: P.I. (protective index, TD50/ED50)

{"columns": ["compound", "P.I. (protective index, TD50/ED50)"],
 "data": [
  ["CC(Nc1ccc(Br)cc1)c1ccncc1 (racemic) [reference compound]", "> 23.9"],
  ["CC(Nc1cccc(Cl)c1)c1ccncc1 (racemic) [reference compound]", "> 14.7"],
  ["CCC(Nc1ccc(Cl)cc1)c1ccncc1 (racemic) [reference compound]", "> 20"],
  ["CC(Nc1ccc(Cl)c(Cl)c1)c1ccncc1 (racemic) [reference compound]", "> 16.8"]
]}

Next up:
Param item = CC(Nc1ccc(Cl)cc1)c1ccncc1 (racemic) [reference compound] ; retrieve measured P.I. (protective index, TD50/ED50).
> 20.5
